experiment: Cytotoxicity against human HepG2 cells assessed as reduction in cell viability incubated for 7 days by MTT assay; type: toxicity, cell-based; conditions: time 7 day
CC50 at 168 h strictly under 70 µM means rule met; at 70 µM or over means rule not met.

Record excerpt, results attached:
INPUT: Strictly below 70 µM in CC50 at 168 h? `CC(C)(C)c1ccc(C(=O)NC(=S)Nc2ccc(C(F)(F)F)cn2)cc1`
OUTPUT: rule not met

INPUT: # repeat for `O=C(NC(=S)Nc1ccc(C(F)(F)F)cn1)c1ccc(O)cc1`
OUTPUT: rule met

INPUT: Further, for `O=C(NC(=S)Nc1ccc([N+](=O)[O-])cn1)c1ccc(Cl)cc1` ?
OUTPUT: rule not met

INPUT: How about this compound: `COc1ccc(C(=O)NC(=S)Nc2ccc(C(F)(F)F)cn2)cc1`
OUTPUT: rule not met

INPUT: Another compound: `O=C(NC(=S)Nc1ccc(Br)cn1)c1ccc(Br)cc1`
OUTPUT: rule met

***
INPUT: Is CC50 at 168 h of `O=C(NC(=S)Nc1ccc(Cl)cn1)c1ccc(Cl)cc1` strictly below 70 µM?
OUTPUT: rule met

INPUT: Would you kindly repeat that for `CC(C)c1ccc(C(=O)NC(=S)Nc2ccc(C(F)(F)F)cn2)cc1` ?
OUTPUT: rule met

INPUT: Moving on to the next compound: `O=C(NC(=S)Nc1cc(-c2ccccc2)c(C(F)(F)F)cn1)c1ccc(Cl)cc1`
OUTPUT: rule not met

INPUT: Now consider `Cc1ccc(C(=O)NC(=S)Nc2ccc(C(F)(F)F)cn2)cc1` and answer again.
OUTPUT: rule not met

INPUT: Cool, now `O=C(NC(=S)Nc1ccccn1)c1ccc(Cl)cc1`
OUTPUT: rule met
